Documented IC50 across a set of molecules
- protocol-text: Inhibition of beta-hematin formation after 16 hrs
- Assay type: functional
Kindly provide the numeric value in µg/mL only, without the unit symbol.

Here are 5 molecules together with their reported answers.
>>> measured_number("Cc1ccc(Nc2nc(NCCCN3CCOCC3)nc(Nc3cccc(Nc4ccnc5cc(Cl)ccc45)c3)n2)cc1")
2.7
>>> measured_number("Clc1ccc2c(Nc3ccc(Nc4nc(NCCCN5CCOCC5)nc(N5CCCCC5)n4)cc3)ccnc2c1")
2.71
>>> measured_number("CNc1nc(Nc2ccc(C)cc2)nc(Nc2ccc(Nc3ccnc4cc(Cl)ccc34)cc2)n1")
3.16
>>> measured_number("Clc1ccc2c(Nc3ccc(Nc4nc(NCCCN5CCOCC5)nc(Nc5ccccc5)n4)cc3)ccnc2c1")
2.98
>>> measured_number("Cc1ccc(Nc2nc(NCCCN3CCOCC3)nc(Nc3ccc(Nc4ccnc5cc(Cl)ccc45)cc3)n2)cc1")
2.85

Problem: # query: IC50 of entry `CCN1CCN(c2nc(Nc3ccccc3)nc(Nc3ccc(Nc4ccnc5cc(Cl)ccc45)cc3)n2)CC1`
Solution: 2.69

Problem: # query: IC50 of entry `CCN1CCN(c2nc(Nc3ccc(Nc4ccnc5cc(Cl)ccc45)cc3)nc(N3CCCCC3)n2)CC1`
Solution: 2.79

Problem: # query: IC50 of entry CCN(CC)CCCC(C)Nc1ccnc2cc(Cl)ccc12 (stereo unspecified)
Solution: 3.65

Problem: # query: IC50 of entry `CCCCNc1nc(Nc2ccccc2)nc(Nc2cccc(Nc3ccnc4cc(Cl)ccc34)c2)n1`
Solution: 2.55

Problem: # query: IC50 of entry `CCCCNc1nc(Nc2ccccc2)nc(Nc2ccc(Nc3ccnc4cc(Cl)ccc34)cc2)n1`
Solution: 3.08

Problem: # query: IC50 of entry `CCCCNc1nc(Nc2ccc(Nc3ccnc4cc(Cl)ccc34)cc2)nc(Nc2ccccc2C)n1`
Solution: 2.96

###

- Tested on: Plasmodium falciparum 3D7
- protocol-text: Selectivity index, IC50 for african green monkey Vero cells to IC50 for Plasmodium falciparum 3D7
Lab note: anything with Selectivity Index below 100 is marked 1.0; values at 100 or higher are marked 0.0.

The examples below pair each entry with its known result.
>>> class_name("Cc1ccccc1Nc1nc(NCc2ccccc2)nc(Nc2ccc(Nc3ccnc4cc(Cl)ccc34)cc2)n1")
0.0
>>> class_name("Clc1ccc2c(Nc3ccc(Nc4nc(Nc5ccccc5)nc(NC5CCCCC5)n4)cc3)ccnc2c1")
1.0
>>> class_name("CCN1CCN(c2nc(Nc3ccccc3)nc(Nc3cccc(Nc4ccnc5cc(Cl)ccc45)c3)n2)CC1")
1.0
>>> class_name("CCN1CCN(c2nc(Nc3ccc(Nc4ccnc5cc(Cl)ccc45)cc3)nc(N3CCCCC3)n2)CC1")
0.0
>>> class_name("CCN(CC)CCNc1nc(Nc2ccccc2)nc(Nc2cccc(Nc3ccnc4cc(Cl)ccc34)c2)n1")
0.0
>>> class_name("CNc1nc(Nc2ccc(Nc3ccnc4cc(Cl)ccc34)cc2)nc(Nc2ccccc2C)n1")
0.0
>>> class_name("Clc1ccc2c(Nc3ccc(Nc4nc(NC5CCCCC5)nc(N5CCCCC5)n4)cc3)ccnc2c1")
0.0
>>> class_name("Nc1nc(Nc2ccccc2)nc(Nc2ccc(Nc3ccnc4cc(Cl)ccc34)cc2)n1")
0.0
>>> class_name("Cc1ccc(Nc2nc(Nc3ccc(Nc4ccnc5cc(Cl)ccc45)cc3)nc(N3CCN(C)CC3)n2)cc1")
1.0
>>> class_name("Cc1ccc(Nc2nc(NCc3ccccc3)nc(Nc3ccc(Nc4ccnc5cc(Cl)ccc45)cc3)n2)cc1")
1.0

Problem: Confirm or reject: Selectivity Index of `Cc1ccc(Nc2nc(NCCCN3CCOCC3)nc(Nc3cccc(Nc4ccnc5cc(Cl)ccc45)c3)n2)cc1` lies strictly below 100
Solution: 0.0

Problem: Confirm or reject: Selectivity Index of `CCN(CC)CCNc1nc(Nc2ccc(Nc3ccnc4cc(Cl)ccc34)cc2)nc(Nc2ccccc2C)n1` lies strictly below 100
Solution: 0.0

Problem: Confirm or reject: Selectivity Index of `CCCCNc1nc(Nc2ccc(Nc3ccnc4cc(Cl)ccc34)cc2)nc(Nc2ccccc2C)n1` lies strictly below 100
Solution: 0.0

Problem: Confirm or reject: Selectivity Index of `Clc1ccc2c(Nc3ccc(Nc4nc(NCCCN5CCOCC5)nc(Nc5ccccc5)n4)cc3)ccnc2c1` lies strictly below 100
Solution: 0.0

Problem: Confirm or reject: Selectivity Index of `CN1CCN(c2nc(Nc3ccccc3)nc(Nc3cccc(Nc4ccnc5cc(Cl)ccc45)c3)n2)CC1` lies strictly below 100
Solution: 0.0

Problem: Confirm or reject: Selectivity Index of `Cc1ccc(Nc2nc(Nc3cccc(Nc4ccnc5cc(Cl)ccc45)c3)nc(N3CCN(C)CC3)n2)cc1` lies strictly below 100
Solution: 0.0

Problem: Confirm or reject: Selectivity Index of `Cc1ccc(Nc2nc(NCCCN3CCOCC3)nc(Nc3ccc(Nc4ccnc5cc(Cl)ccc45)cc3)n2)cc1` lies strictly below 100
Solution: 0.0

Problem: Confirm or reject: Selectivity Index of `CCN1CCN(c2nc(Nc3ccccc3)nc(Nc3ccc(Nc4ccnc5cc(Cl)ccc45)cc3)n2)CC1` lies strictly below 100
Solution: 0.0

Problem: Confirm or reject: Selectivity Index of `CCCCNc1nc(Nc2ccccc2)nc(Nc2cccc(Nc3ccnc4cc(Cl)ccc34)c2)n1` lies strictly below 100
Solution: 0.0

Problem: Confirm or reject: Selectivity Index of `CCN(CC)CCNc1nc(Nc2ccc(Nc3ccnc4cc(Cl)ccc34)cc2)nc(N2CCCCC2)n1` lies strictly below 100
Solution: 1.0

###

Documented Selectivity Index across a set of compounds
- Test system: Plasmodium falciparum 3D7
- protocol-text: Selectivity index, IC50 for african green monkey Vero cells to IC50 for Plasmodium falciparum 3D7
// return a plain number; no unit text

Here are 4 compounds together with their reported answers.
>>> measured_number("CN1CCN(c2nc(Nc3ccccc3)nc(Nc3ccc(Nc4ccnc5cc(Cl)ccc45)cc3)n2)CC1")
92.06
>>> measured_number("CCN1CCN(c2nc(Nc3ccc(Nc4ccnc5cc(Cl)ccc45)cc3)nc(Nc3ccccc3C)n2)CC1")
2.58
>>> measured_number("CCN(CC)CCNc1nc(Nc2ccc(C)cc2)nc(Nc2ccc(Nc3ccnc4cc(Cl)ccc34)cc2)n1")
64.38
>>> measured_number("CN1CCN(c2nc(Nc3ccc(Nc4ccnc5cc(Cl)ccc45)cc3)nc(N3CCCCC3)n2)CC1")
106.35

Query compound follows.
Problem: # query: Selectivity Index of entry `Cc1ccccc1Nc1nc(NCCCN2CCOCC2)nc(Nc2ccc(Nc3ccnc4cc(Cl)ccc34)cc2)n1`
Solution: 418.75

###

- Tested on: Plasmodium falciparum 3D7
- protocol-text: Selectivity index, IC50 for african green monkey Vero cells to IC50 for Plasmodium falciparum 3D7
Documented Selectivity Index across a set of compounds
// return a plain number; no unit text

>>> measured_number("Clc1ccc2c(Nc3ccc(Nc4nc(NCc5ccccc5)nc(N5CCCCC5)n4)cc3)ccnc2c1")
98.42
>>> measured_number("CCCCNc1nc(Nc2ccc(C)cc2)nc(Nc2ccc(Nc3ccnc4cc(Cl)ccc34)cc2)n1")
101.03
>>> measured_number("CCN(CC)CCNc1nc(Nc2ccccc2)nc(Nc2ccc(Nc3ccnc4cc(Cl)ccc34)cc2)n1")
79.47

Problem: # query: Selectivity Index of entry `Clc1ccc2c(Nc3ccc(Nc4nc(NCCCN5CCOCC5)nc(N5CCCCC5)n4)cc3)ccnc2c1`
Solution: 170.18

Problem: # query: Selectivity Index of entry `CCN1CCN(c2nc(Nc3ccc(C)cc3)nc(Nc3cccc(Nc4ccnc5cc(Cl)ccc45)c3)n2)CC1`
Solution: 229.5

Problem: # query: Selectivity Index of entry `CCCCNc1nc(Nc2ccccc2)nc(Nc2ccc(Nc3ccnc4cc(Cl)ccc34)cc2)n1`
Solution: 287.22

###

- Test system: Plasmodium falciparum 3D7
- protocol-text: Selectivity index, IC50 for african green monkey Vero cells to IC50 for Plasmodium falciparum 3D7
Binned Selectivity Index; ranges: lower (below 100), middle (100 to below 200), upper (200 or more)

>>> class_name("Cc1ccccc1Nc1nc(Nc2ccc(Nc3ccnc4cc(Cl)ccc34)cc2)nc(N2CCN(C)CC2)n1")
"lower"
>>> class_name("CNc1nc(Nc2ccccc2)nc(Nc2ccc(Nc3ccnc4cc(Cl)ccc34)cc2)n1")
"upper"
>>> class_name("CNc1nc(Nc2ccc(C)cc2)nc(Nc2ccc(Nc3ccnc4cc(Cl)ccc34)cc2)n1")
"upper"
>>> class_name("Clc1ccc2c(Nc3cccc(Nc4nc(NCCCN5CCOCC5)nc(Nc5ccccc5)n4)c3)ccnc2c1")
"lower"
>>> class_name("Cc1ccc(Nc2nc(N)nc(Nc3ccc(Nc4ccnc5cc(Cl)ccc45)cc3)n2)cc1")
"middle"
>>> class_name("CCN1CCN(c2nc(Nc3ccc(C)cc3)nc(Nc3ccc(Nc4ccnc5cc(Cl)ccc45)cc3)n2)CC1")
"lower"

Problem: Looking at `Cc1ccccc1Nc1nc(N)nc(Nc2ccc(Nc3ccnc4cc(Cl)ccc34)cc2)n1` , which class would you pick?
Solution: middle

Problem: Looking at `Cc1ccc(Nc2nc(Nc3ccc(Nc4ccnc5cc(Cl)ccc45)cc3)nc(NC3CCCCC3)n2)cc1` , which class would you pick?
Solution: middle

Problem: Looking at `Cc1ccccc1Nc1nc(Nc2ccc(Nc3ccnc4cc(Cl)ccc34)cc2)nc(NC2CCCCC2)n1` , which class would you pick?
Solution: upper

Problem: Looking at `Clc1ccc2c(Nc3ccc(Nc4nc(NCc5ccccc5)nc(Nc5ccccc5)n4)cc3)ccnc2c1` , which class would you pick?
Solution: middle
